# Test system: Triticum aestivum
# Type: in vivo
# REPORTED_CONDITIONS: amount of chemical 25 g/ha

COMPOUND	EXPERIMENTAL_TARGET	herbicidal effect on Triticum aestivum
O=C(O)COc1ccc(Cl)cc1Cl [2,4-D]	Triticum aestivum	0
CCc1cc(C)cc(CC)c1-c1c(OC(=O)OC)c(C)nn(C)c1=O [I-b-25]	Triticum aestivum	5
CCOC(=O)Oc1c(C)nn(C)c(=O)c1-c1c(C)cc(C)cc1CC [I-b-35]	Triticum aestivum	10
CCc1cc(CC)c(-c2c(OC(=O)OC)c(C)nn(C)c2=O)c(CC)c1 [I-b-36]	Triticum aestivum	10
CCOC(=O)Oc1c(C)nn(C)c(=O)c1-c1c(CC)cc(C)cc1CC [I-b-18]	Triticum aestivum	10
